- System: NCI-H28 mesothelioma cell line
- EXPERIMENT SUMMARY: Inhibition of cell proliferation (cellular ATP monitoring)
- Type: cell-based
- RUN PARAMETERS: Homo sapiens; NCI-H28, 72 hours after treatment
READOUT KIND: IC50
# output: numeric value plus its unit

Lookup: # get_value(readout='IC50', item= `CNC(=O)c1nn(C)c2c1C(C)(C)Cc1cnc(Nc3ccc(N4CCN(C)CC4)cc3)nc1-2` )
Found: 1.56 µM
